Below, each entry is listed with its recorded TGI.
- System: HCT-15 colon
- procedure.summary: NCI tumour cell line growth inhibition, 48 h

// below: answered compounds
{"columns": ["compound", "target.or.system", "TGI"],
 "data": [
  ["Cn1c2ccc([N+](=O)[O-])cc2c(=O)c2c(O)cc(O)cc21", "HCT-15 colon", "> 100 µM"],
  ["COc1ccc(C2c3cc4c(cc3OC(N3CCOCC3)C2C)OCO4)c(OC)c1 (stereo not given)", "HCT-15 colon", "> 75.9 µM"],
  ["O=C1CNc2cc(N3CCN(c4cccc(C(F)(F)F)c4)CC3)ccc2N1", "HCT-15 colon", "> 100 µM"],
  ["CNS(=O)(=O)NN(C)S(=O)(=O)c1ccc(Br)cc1", "HCT-15 colon", "> 100 µM"]
]}

--- query ---
Dear colleague, I am looking for the recorded TGI of the following compound: O=[N+]([O-])c1cccc2nc3ccccc3c(NCCNCCO)c12 > 100 µM

---

- System: SK-OV-3 ovarian
- procedure.summary: NCI tumour cell line growth inhibition, 48 h
Classes (TGI): class 1: < 20 µM; class 2: ≥ 20 µM and < 30 µM; class 3: ≥ 30 µM

Use the examples below as a reference point.
{"columns": ["compound", "assigned.category"],
 "data": [
  ["CCS(=O)(=O)c1ccc(OC)c(Nc2nccc(N(C)c3ccc4c(C)[nH]nc4c3)n2)c1", "class 1"],
  ["Cc1cc2c(c(C#N)c1C)NC(=O)C(CC(=O)O)C2=O (stereo not drawn)", "class 3"],
  ["O=C(Nc1ccncc1)C(=O)c1cn(S(=O)(=O)c2ccccc2F)c2ccccc12", "class 3"]
]}

Which category does the recorded TGI put O=c1[nH]nc2c3c(cccc13)NC(CN1Cc3ccccc3C1)=N2 in? class 3

// same read-out, input: CNC1NC(=O)c2ccccc2N1Cc1ccc(F)cc1 (stereo not drawn) class 3

Same again, this time with O=C(O)c1ccc(NS(=O)(=O)c2cccc3cccnc23)cc1 class 3

Again, but for CC(=O)OC[C@@H]1[C@H]2CC(=O)O[C@H]2C[C@H]1OC(C)=O class 3

---

- System: PC-3 prostate
- procedure.summary: NCI tumour cell line growth inhibition, 48 h
Here, each record is paired with measured TGI data.

{"columns": ["molecule", "TGI"],
 "data": [
  ["NNC(=O)CCCCCCCC(=O)O", "> 100 µM"],
  ["CN(/N=N/c1nc(OCc2ccccc2)c2[nH]cnc2n1)C(=O)N(C)/N=N/c1nc(OCc2ccccc2)c2[nH]cnc2n1", "> 100 µM"],
  ["CO/N=C1/NC(=O)/C(=C/c2ccc3ncccc3c2)S1", "> 25 µM"],
  ["CSCCCNC(=O)c1csc([C@@H](CSC)NC(=O)CCNC(=O)[C@@H](NC(=O)OCC(Br)(Br)Br)C(C)O)n1 (stereo partly specified)", "> 100 µM"],
  ["O=C1NC(N/N=C/C(O)C(O)C(O)C(O)CO)=N/C1=C\\c1cccs1 (stereo unspecified)", "> 100 µM"]
]}

Would you kindly look at the next entry?
Lab request: please report TGI under test system PC-3 prostate for CCOC(=O)CC[C@@H](NC(=O)c1ccc(NCc2ccc3nc(OC)c(OC)nc3c2)cc1)C(=O)OCC > 100 µM

---

- System: OVCAR-5 ovarian
- procedure.summary: NCI tumour cell line growth inhibition, 48 h
Here the recorded TGI is given for each entry.

{"columns": ["smiles.code", "TGI"],
 "data": [
  ["C=C(CN1CCN(c2ccccc2F)CC1)c1ccc(C(=O)Nc2ccccc2N)cc1", "> 100 µM"],
  ["CCOC(=O)c1c(NC(=O)c2ccccc2)sc2c1CCC2", "> 100 µM"]
]}

Form: Entry = C(/C=N/NC1=NCCN1)=N\NC1=NCCN1 | System = OVCAR-5 ovarian | TGI = ____ > 100 µM

How about this compound: COc1cc2c(OC)c(c1)CCCC1=CC(=O)C=C(CCC2)C1=O > 100 µM

How about CCOc1cc2ncc(C#N)c(Nc3ccc(F)c(Cl)c3)c2cc1NC(=O)/C=C/CN(C)C ? > 5.93 µM

---

// GI50 lookup, one value per entry
- System: DU-145 prostate
- procedure.summary: NCI tumour cell line growth inhibition, 48 h

Example compounds with recorded GI50:
{"columns": ["smiles.code", "target.or.system", "endpoint.label", "result"],
 "data": [
  ["Cc1nn2c(/C=C3/C(=O)Nc4ccc(Cl)cc43)c(-c3ccccc3)nc2s1", "DU-145 prostate", "GI50", "2690 nM"],
  ["CCc1ccc(CCC(=O)Nc2ncc(Cc3ccccc3)s2)o1", "DU-145 prostate", "GI50", "4510 nM"]
]}

Now look at this entry.
What measured GI50 goes with Cc1cc(N/N=C/c2nc(-c3ccccc3)oc2C)c2cc(Cl)ccc2n1 ? 2150 nM

---

- System: SN12C renal
- procedure.summary: NCI tumour cell line growth inhibition, 48 h
endpoint.label: TGI

Form entry - test system: SN12C renal; read-out: TGI; molecule: O=C(c1ccc(Cl)cc1)N(C(=S)N1CCN(c2ccccc2)CC1)c1ccccc1 > 100 µM

Also, COC(=O)[C@H]1ON2O[C@@H](O[C@H]3CCCC[C@@H]3C(C)(C)c3ccccc3)C[C@@H]3CC[C@H]1[C@@]32C please. > 100 µM

Try CN1CCN(Cc2ccc(NC(=O)c3[nH]ncc3Nc3ncnc4c3CCC4)cc2)CC1 next. 20.2 µM

Repeat for the following molecule: Cc1ccc(NS(=O)(=O)c2cc(C)ccc2C)cc1 19.9 µM

Would you mind doing CNC(=O)CNC(=O)CCC(=O)N(C)C as well? > 100 µM

Try NC(=O)C1=C(c2ccccc2)c2ccccc2C1=O next. 33.8 µM

Next record, please: COc1cc2c(cc1OC)[C@@H](C(O)c1ccccc1)NCC2 (some centres undefined) > 100 µM

---

TGI values for the molecules below.
- Test system: HCC-2998 colon
- procedure.summary: NCI tumour cell line growth inhibition, 48 h

{"columns": ["molecule", "TGI"],
 "data": [
  ["O=C(O)c1ccc([N+](=O)[O-])c2c(=O)c3ccccc3[nH]c12", "> 100 µM"],
  ["COC(=O)[C@H]1ON2O[C@@H](O[C@H]3CCCC[C@@H]3C(C)(C)c3ccccc3)C[C@@H]3CC[C@H]1[C@@]32C", "> 100 µM"],
  ["Clc1cc(Cl)cc(N2N=C(c3cccc(Nc4ccncc4)c3)CC2c2ccc(Br)cc2)c1 (stereo unspecified)", "3.2 µM"]
]}

Item: COC(=O)c1cc(C)ccc1CC(Cc1ccccc1C)C(=O)OC (stereo unspecified) Test system: HCC-2998 colon Read-out: TGI Value: ? > 100 µM

Do the same for C=CCN1C(=O)/C(=C/c2cccs2)N=C1SC1OC(COC(=O)c2ccccc2)C(OC(=O)c2ccccc2)C1OC(=O)c1ccccc1 (stereo unspecified) please > 100 µM

Next up: CC(C)(C)C(=O)C(c1ccc(-c2cscn2)cc1)c1ccc(-c2cscn2)cc1 > 100 µM

---

- Tested on: HCT-116 colon
- procedure.summary: NCI tumour cell line growth inhibition, 48 h
endpoint.label: TGI

Consider the reported TGI for these compounds:
{"columns": ["compound", "TGI"],
 "data": [
  ["COc1cccc(NC(=O)N/C(=C/c2ccc(N(CCC#N)CCC#N)cc2)NC(=O)c2cc([N+](=O)[O-])ccc2Cl)c1", "> 100 µM"],
  ["COc1ccc(/C=N/n2c(C)n[nH]c2=O)cc1", "> 100 µM"],
  ["N#Cc1nsnc1-c1nc(-c2nsnc2C#N)nc(-c2nsnc2C#N)n1", "> 100 µM"],
  ["CC(=O)OC[C@@H]1[C@H]2CC(=O)O[C@H]2C[C@H]1OC(C)=O", "> 100 µM"],
  ["O=C(CN=C(CN(c1ccccc1)c1ccccc1)Oc1c([N+](=O)[O-])cc([N+](=O)[O-])cc1[N+](=O)[O-])N1CCNCC1", "> 100 µM"]
]}

As a next step, examine the compound that follows.
Please look up its TGI: Cc1ccc(S(=O)(=O)OCC23CCC(C4CC42)C2CC23)cc1 (stereo unspecified) > 100 µM

---

Listed molecules paired with reported TGI
- Tested on: TK-10 renal
- procedure.summary: NCI tumour cell line growth inhibition, 48 h

See these solved cases before continuing.
{"columns": ["molecule", "TGI"],
 "data": [
  ["COc1cc(-c2cn(-c3ccc(Cl)cc3)c(=O)[nH]2)cc(OC)c1OC", "> 100 µM"],
  ["O=C(CNC(=O)c1cccc2ccccc12)Nc1ccccc1Oc1ccccc1", "> 10 µM"],
  ["COc1cccc(NC(=O)N/C(=C/c2ccc(N(CCC#N)CCC#N)cc2)NC(=O)c2cc([N+](=O)[O-])ccc2Cl)c1", "> 100 µM"],
  ["CCOC(=O)NC(N(C)C(C(C)C)P(=O)(OCC)OCC)(C(F)(F)F)C(F)(F)F (configuration not stated)", "> 100 µM"],
  ["CN(/N=N/c1nc(OCc2ccccc2)c2[nH]cnc2n1)C(=O)N(C)/N=N/c1nc(OCc2ccccc2)c2[nH]cnc2n1", "> 100 µM"],
  ["O=C(CN=C(CN(c1ccccc1)c1ccccc1)Oc1c([N+](=O)[O-])cc([N+](=O)[O-])cc1[N+](=O)[O-])N1CCNCC1", "> 100 µM"],
  ["O=c1[nH]nc2c3c(cccc13)NC(CN1Cc3ccccc3C1)=N2", "> 100 µM"],
  ["CC1(C)SC2C(NC(=O)Cc3ccccc3)C(=O)N2C1C(=O)O (configuration not stated)", "> 100 µM"]
]}

Returns the measured TGI for the input molecule. Input: CNC=O > 10000 µM

Now this one: O=C1CNc2cc(N3CCN(c4cccc(C(F)(F)F)c4)CC3)ccc2N1 > 100 µM

// repeat for CCCN(CCC)C(=O)Cc1c2n(c3ccccc13)Cc1ccccc1-2 and report > 100 µM

And the next one, C=C(Br)C(Cl)(CBr)CCC(Br)C(C)(C)Cl (configuration not stated) ? > 10 µM
